- Tested on: HCT116 colon cell carcinoma
- METHOD_NOTES: Relative colony forming efficiency after antisense treatment (Table 13)
- Assay type: cell-based, human
- CONDITIONS: 0.2 μM antisense oligodeoxyribonucleotide phosphorothioate; HCT116 cells; averages of 2-8 determinations
Strand notation (5' to 3'): a small letter for the sugar, then the base; units joined by * are phosphorothioate-linked, units joined directly phosphodiester-linked; [ ] holds rarer units or linkages, { } end groups; capitals alone tell only the bases. d = 2'-deoxy (DNA)
Range-based classes on measured Reduced relative colony forming efficiency, expressed as % inhibition, HCT116: low end = under 50%, middle = from 50% up to 70%, high end = 70% and over

>  <POLYMER_SEQUENCE>
CGGAGGGAGAGCATAGTGGA (dC*dG*dG*dA*dG*dG*dG*dA*dG*dA*dG*dC*dA*dT*dA*dG*dT*dG*dG*dA; antisense) [AS-II-189-20]

>  <TARGET_SYSTEM>
HCT116 colon cell carcinoma

>  <CAT>
high end

$$$$
>  <POLYMER_SEQUENCE>
CGGGTCCGTGATGGGCGCGA (dC*dG*dG*dG*dT*dC*dC*dG*dT*dG*dA*dT*dG*dG*dG*dC*dG*dC*dG*dA; antisense) [AS-II-217-20]

>  <TARGET_SYSTEM>
HCT116 colon cell carcinoma

>  <CAT>
middle

$$$$
>  <POLYMER_SEQUENCE>
TTCTCTTACTCTCTCCTCCG (DNA, all phosphorothioate, methylation of C not given here) [AS-II-1048-20]

>  <TARGET_SYSTEM>
HCT116 colon cell carcinoma

>  <CAT>
low end

$$$$
>  <POLYMER_SEQUENCE>
GAAGCCATAGAAACAGCGGG (antisense; DNA, all phosphorothioate, methylation of C not given here) [AS-II-667-20]

>  <TARGET_SYSTEM>
HCT116 colon cell carcinoma

>  <CAT>
high end

$$$$
>  <POLYMER_SEQUENCE>
GCACGGGCGACC (antisense dG*dC*dA*dC*dG*dG*dG*dC*dG*dA*dC*dC) [AS-II-127-12]

>  <TARGET_SYSTEM>
HCT116 colon cell carcinoma

>  <CAT>
middle

$$$$
>  <POLYMER_SEQUENCE>
GCACATCTTCAGTTCATTTA (DNA, all phosphorothioate, methylation of C not given here) [AS-II-1362-20]

>  <TARGET_SYSTEM>
HCT116 colon cell carcinoma

>  <CAT>
high end

$$$$
>  <POLYMER_SEQUENCE>
GCATCCAAGGTAAAAGAATT (DNA, all phosphorothioate, methylation of C not given here) [AS-II-1335-20]

>  <TARGET_SYSTEM>
HCT116 colon cell carcinoma

>  <CAT>
middle

$$$$
>  <POLYMER_SEQUENCE>
GGCATCAGTCCTCGTTTCTT (antisense; DNA, all phosphorothioate, methylation of C not given here) [AS-II-933-20]

>  <TARGET_SYSTEM>
HCT116 colon cell carcinoma

>  <CAT>
middle

$$$$
>  <POLYMER_SEQUENCE>
CGCGCTCCCGGCCC (dC*dG*dC*dG*dC*dT*dC*dC*dC*dG*dG*dC*dC*dC) [AS-II-79-14]

>  <TARGET_SYSTEM>
HCT116 colon cell carcinoma

>  <CAT>
low end

$$$$
>  <POLYMER_SEQUENCE>
AGCCTCTGCCTTCTTATACA (dA*dG*dC*dC*dT*dC*dT*dG*dC*dC*dT*dT*dC*dT*dT*dA*dT*dA*dC*dA; antisense) [AS-II-472-20]

>  <TARGET_SYSTEM>
HCT116 colon cell carcinoma

>  <CAT>
middle

$$$$

---

- System: T24 bladder cell carcinoma
- METHOD_NOTES: Relative colony forming efficiency after antisense treatment (Table 13)
- Type: cell-based, human
- CONDITIONS: 0.2 μM antisense oligodeoxyribonucleotide phosphorothioate; T24 cells; averages of 2-8 determinations
Strand notation (5' to 3'): a small letter for the sugar, then the base; units joined by * are phosphorothioate-linked, units joined directly phosphodiester-linked; [ ] holds rarer units or linkages, { } end groups; capitals alone tell only the bases. d = 2'-deoxy (DNA)
Reduced relative colony forming efficiency, expressed as % inhibition, T24 for assorted sequences
METRIC_NAME: Reduced relative colony forming efficiency, expressed as % inhibition, T24 (%)

>  <POLYMER_SEQUENCE>
ATCCAGCGCAAGGCCCAGTC (antisense; DNA, all phosphorothioate, methylation of C not given here) [AS-II-816-20]

>  <MEASUREMENT>
73.91

$$$$
>  <POLYMER_SEQUENCE>
TCGCCTACTCTCTTCTCAAA (DNA, all phosphorothioate, methylation of C not given here) [AS-II-1278-20]

>  <MEASUREMENT>
65.42

$$$$
>  <POLYMER_SEQUENCE>
ACCCTTCCCATTGGCTGCGC (dA*dC*dC*dC*dT*dT*dC*dC*dC*dA*dT*dT*dG*dG*dC*dT*dG*dC*dG*dC; antisense) [AS-II-6-20]

>  <MEASUREMENT>
73.85

$$$$
>  <POLYMER_SEQUENCE>
GCGAGCGGGACACGGAGGGA (dG*dC*dG*dA*dG*dC*dG*dG*dG*dA*dC*dA*dC*dG*dG*dA*dG*dG*dG*dA; antisense) [AS-II-201-20]

>  <MEASUREMENT>
96.2

$$$$
>  <POLYMER_SEQUENCE>
AGGACTGGTTGTGAGGTAGC (DNA, all phosphorothioate, methylation of C not given here) [AS-II-1499-20]

>  <MEASUREMENT>
82.81

$$$$
>  <POLYMER_SEQUENCE>
AACTTCTTGGCTAAATCGCT (dA*dA*dC*dT*dT*dC*dT*dT*dG*dG*dC*dT*dA*dA*dA*dT*dC*dG*dC*dT; antisense) [AS-II-634-20]

>  <MEASUREMENT>
83.52

$$$$
>  <POLYMER_SEQUENCE>
CCTCTGATACTCGCCTACTC (DNA, all phosphorothioate, methylation of C not given here) [AS-II-1288-20]

>  <MEASUREMENT>
56.75

$$$$
>  <POLYMER_SEQUENCE>
TGGCTGTGCTGGTTAAAGGA (DNA, all phosphorothioate, methylation of C not given here) [AS-II-1659-20]

>  <MEASUREMENT>
74.09

$$$$
>  <POLYMER_SEQUENCE>
TTAGTGGTCAGGAGAATGTA (antisense; DNA, all phosphorothioate, methylation of C not given here) [AS-II-1819-20]

>  <MEASUREMENT>
53.74

$$$$
>  <POLYMER_SEQUENCE>
GGTTTTCTCTCAGCAGCGGC (dG*dG*dT*dT*dT*dT*dC*dT*dC*dT*dC*dA*dG*dC*dA*dG*dC*dG*dG*dC; antisense) [AS-II-404-20]

>  <MEASUREMENT>
84.26

$$$$
>  <POLYMER_SEQUENCE>
TTCATGGTGTGGCTAGTTGG (DNA, all phosphorothioate, methylation of C not given here) [AS-II-1438-20]

>  <MEASUREMENT>
43.7

$$$$
>  <POLYMER_SEQUENCE>
GAGAAATAAAATGAAACGGC (antisense; DNA, all phosphorothioate, methylation of C not given here) [AS-II-2164-20]

>  <MEASUREMENT>
61.84

$$$$

---

Reduced relative colony forming efficiency, expressed as % inhibition, HepG2 for assorted sequences
- Tested on: HepG2 hepatocellular carcinoma
- METHOD_NOTES: Relative colony forming efficiency after antisense treatment (Table 13, FIG. 12)
- Assay type: cell-based, human
- CONDITIONS: 0.2 μM antisense oligodeoxyribonucleotide phosphorothioate; HepG2 cells; averages of 2-8 determinations
Strand notation (5' to 3'): a small letter for the sugar, then the base; units joined by * are phosphorothioate-linked, units joined directly phosphodiester-linked; [ ] holds rarer units or linkages, { } end groups; capitals alone tell only the bases. d = 2'-deoxy (DNA)
METRIC_NAME: Reduced relative colony forming efficiency, expressed as % inhibition, HepG2 (%)

>  <POLYMER_SEQUENCE>
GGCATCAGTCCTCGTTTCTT (antisense; DNA, all phosphorothioate, methylation of C not given here) [AS-II-933-20]

>  <MEASUREMENT>
79.97

$$$$
>  <POLYMER_SEQUENCE>
CGGCTCATCCTCCACGC (dC*dG*dG*dC*dT*dC*dA*dT*dC*dC*dT*dC*dC*dA*dC*dG*dC) [AS-II-391-17]

>  <MEASUREMENT>
60.64

$$$$
>  <POLYMER_SEQUENCE>
CCTCCTCGGCGGTCCAAAAG (dC*dC*dT*dC*dC*dT*dC*dG*dG*dC*dG*dG*dT*dC*dC*dA*dA*dA*dA*dG; antisense) [AS-II-494-20]

>  <MEASUREMENT>
93.37

$$$$
>  <POLYMER_SEQUENCE>
GCACGGGCGACC (antisense dG*dC*dA*dC*dG*dG*dG*dC*dG*dA*dC*dC) [AS-II-127-12]

>  <MEASUREMENT>
71.75

$$$$
>  <POLYMER_SEQUENCE>
GGCTAAATCGCTCCACCAAG (dG*dG*dC*dT*dA*dA*dA*dT*dC*dG*dC*dT*dC*dC*dA*dC*dC*dA*dA*dG) [AS-II-626-20]

>  <MEASUREMENT>
75.89

$$$$
>  <POLYMER_SEQUENCE>
TGCCTCCGACCCTTCCCATT (antisense dT*dG*dC*dC*dT*dC*dC*dG*dA*dC*dC*dC*dT*dT*dC*dC*dC*dA*dT*dT) [AS-II-14-20]

>  <MEASUREMENT>
88.4

$$$$
>  <POLYMER_SEQUENCE>
CCCAGTTCCAGCATAAGTCT (DNA, all phosphorothioate, methylation of C not given here) [AS-II-1182-20]

>  <MEASUREMENT>
92.23

$$$$
>  <POLYMER_SEQUENCE>
CTCTCTCCTCCGATGGTTTG (DNA, all phosphorothioate, methylation of C not given here) [AS-II-1040-20]

>  <MEASUREMENT>
77.78

$$$$
>  <POLYMER_SEQUENCE>
GCATCCAAGGTAAAAGAATT (DNA, all phosphorothioate, methylation of C not given here) [AS-II-1335-20]

>  <MEASUREMENT>
72.98

$$$$
>  <POLYMER_SEQUENCE>
GGCGACCCCTCACTCCAGCA (antisense dG*dG*dC*dG*dA*dC*dC*dC*dC*dT*dC*dA*dC*dT*dC*dC*dA*dG*dC*dA) [AS-II-114-20]

>  <MEASUREMENT>
78.72

$$$$
>  <POLYMER_SEQUENCE>
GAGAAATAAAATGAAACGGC (antisense; DNA, all phosphorothioate, methylation of C not given here) [AS-II-2164-20]

>  <MEASUREMENT>
93.07

$$$$
>  <POLYMER_SEQUENCE>
TGTAAACCCTCATCTCTGCT (antisense; DNA, all phosphorothioate, methylation of C not given here) [AS-II-981-20]

>  <MEASUREMENT>
95.03

$$$$
>  <POLYMER_SEQUENCE>
GAACATCAGGCAAGCAAAAT (DNA, all phosphorothioate, methylation of C not given here) [AS-II-1006-20]

>  <MEASUREMENT>
89.31

$$$$
>  <POLYMER_SEQUENCE>
GCAAAGGCTACAACACGTTC (antisense; DNA, all phosphorothioate, methylation of C not given here) [AS-II-861-20]

>  <MEASUREMENT>
96.08

$$$$
>  <POLYMER_SEQUENCE>
CTGCTTTAGTTTTCGGCTCC (dC*dT*dG*dC*dT*dT*dT*dA*dG*dT*dT*dT*dT*dC*dG*dG*dC*dT*dC*dC; antisense) [AS-II-362-20]

>  <MEASUREMENT>
95.78

$$$$
>  <POLYMER_SEQUENCE>
GTATTGCTTCATTAGAGTGC (DNA, all phosphorothioate, methylation of C not given here) [AS-II-1144-20]

>  <MEASUREMENT>
92.17

$$$$
>  <POLYMER_SEQUENCE>
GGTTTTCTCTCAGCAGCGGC (dG*dG*dT*dT*dT*dT*dC*dT*dC*dT*dC*dA*dG*dC*dA*dG*dC*dG*dG*dC; antisense) [AS-II-404-20]

>  <MEASUREMENT>
84.79

$$$$
>  <POLYMER_SEQUENCE>
TCGCTCCACCAAGTTTTCAT (dT*dC*dG*dC*dT*dC*dC*dA*dC*dC*dA*dA*dG*dT*dT*dT*dT*dC*dA*dT; antisense) [AS-II-619-20]

>  <MEASUREMENT>
92.02

$$$$
>  <POLYMER_SEQUENCE>
TCCTCGCGGTCTTGCTGGCC (dT*dC*dC*dT*dC*dG*dC*dG*dG*dT*dC*dT*dT*dG*dC*dT*dG*dG*dC*dC; antisense) [AS-II-323-20]

>  <MEASUREMENT>
96.39

$$$$
>  <POLYMER_SEQUENCE>
ACCCCTCACTCCAGCAGCCT (antisense dA*dC*dC*dC*dC*dT*dC*dA*dC*dT*dC*dC*dA*dG*dC*dA*dG*dC*dC*dT) [AS-II-110-20]

>  <MEASUREMENT>
97.14

$$$$
>  <POLYMER_SEQUENCE>
TCTGCCTTCTTCTTGACACA (antisense; DNA, all phosphorothioate, methylation of C not given here) [AS-II-798-20]

>  <MEASUREMENT>
89.46

$$$$
>  <POLYMER_SEQUENCE>
TGCCTCCGACCCTTCCCA (antisense dT*dG*dC*dC*dT*dC*dC*dG*dA*dC*dC*dC*dT*dT*dC*dC*dC*dA) [AS-II-16-18]

>  <MEASUREMENT>
75.89

$$$$
>  <POLYMER_SEQUENCE>
GCAGCGAAGCAGAGCGAGCA (antisense dG*dC*dA*dG*dC*dG*dA*dA*dG*dC*dA*dG*dA*dG*dC*dG*dA*dG*dC*dA) [AS-II-166-20]

>  <MEASUREMENT>
78.72

$$$$
>  <POLYMER_SEQUENCE>
TCCTTTATCCCACAACACTC (antisense; DNA, all phosphorothioate, methylation of C not given here) [AS-II-2067-20]

>  <MEASUREMENT>
90.36

$$$$
